STUDY_SYSTEM: Potassium voltage-gated channel subfamily KQT member 4 (Homo sapiens, UniProt P56696)
Sequence (P56696 whole entry): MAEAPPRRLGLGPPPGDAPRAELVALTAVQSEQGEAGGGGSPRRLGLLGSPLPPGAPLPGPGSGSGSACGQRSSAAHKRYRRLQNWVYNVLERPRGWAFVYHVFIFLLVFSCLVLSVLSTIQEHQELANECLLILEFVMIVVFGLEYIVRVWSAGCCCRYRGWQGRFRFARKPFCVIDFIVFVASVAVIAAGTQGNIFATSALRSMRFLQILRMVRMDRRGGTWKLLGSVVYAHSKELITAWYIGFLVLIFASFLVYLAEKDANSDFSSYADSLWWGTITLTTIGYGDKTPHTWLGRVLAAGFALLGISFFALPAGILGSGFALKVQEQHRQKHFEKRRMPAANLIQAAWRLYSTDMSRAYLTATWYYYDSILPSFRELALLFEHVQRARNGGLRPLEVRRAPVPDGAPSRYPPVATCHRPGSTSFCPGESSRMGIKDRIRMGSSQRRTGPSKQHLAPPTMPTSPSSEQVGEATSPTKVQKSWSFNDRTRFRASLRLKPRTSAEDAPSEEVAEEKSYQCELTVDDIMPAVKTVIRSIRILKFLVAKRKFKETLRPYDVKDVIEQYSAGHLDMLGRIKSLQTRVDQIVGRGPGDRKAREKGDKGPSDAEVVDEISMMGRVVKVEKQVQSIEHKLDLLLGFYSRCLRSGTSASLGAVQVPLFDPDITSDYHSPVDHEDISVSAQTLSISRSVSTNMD
MEASUREMENT_PROTOCOL: Agonist activity at Kv7.4 (unknown origin) expressed in CHO cells co-expressing GFP
pEC50 values, listed per item
pEC50 field: float, defined as -log10 of concentration (mol/L).

CCOC(=O)Nc1ccc(NCc2ccc(C(F)(F)F)nc2)c(F)c1N | 6.18
Nc1c(F)c(NCc2ncc(C(F)(F)F)cc2F)c(F)c(F)c1NC(=O)OC1CC1 | 6.49
CCOC(=O)Nc1cc(F)c(NCc2ccc(C(F)(F)F)cc2)c(F)c1N | 7.06

As a next step, examine the compound that follows.
Entry Nc1c(NC(=O)OC2CC2)ccc(NCc2ccc(C(F)(F)F)cc2)c1F under Potassium voltage-gated channel subfamily KQT member 4 (Homo sapiens, UniProt P56696) had pEC50 of 6.04
